What pIC50 was measured for each of the following?
System: CDK4/cyclin D3 (Homo sapiens, UniProt P11802)
Construct: purchased Carna Biosciences, Inc. QS S Assist CDK4/Cyclin D3_FP Kit
Sequence (P11802 whole entry): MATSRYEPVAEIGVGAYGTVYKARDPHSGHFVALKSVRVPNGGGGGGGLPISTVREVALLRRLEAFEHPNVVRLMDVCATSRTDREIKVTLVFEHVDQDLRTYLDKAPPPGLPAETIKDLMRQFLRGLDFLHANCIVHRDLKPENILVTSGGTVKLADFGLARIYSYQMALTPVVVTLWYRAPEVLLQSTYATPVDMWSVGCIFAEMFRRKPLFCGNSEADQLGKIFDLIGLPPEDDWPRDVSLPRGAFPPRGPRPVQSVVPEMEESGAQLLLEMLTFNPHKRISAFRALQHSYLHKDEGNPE
Sequence (P30281 whole entry partner): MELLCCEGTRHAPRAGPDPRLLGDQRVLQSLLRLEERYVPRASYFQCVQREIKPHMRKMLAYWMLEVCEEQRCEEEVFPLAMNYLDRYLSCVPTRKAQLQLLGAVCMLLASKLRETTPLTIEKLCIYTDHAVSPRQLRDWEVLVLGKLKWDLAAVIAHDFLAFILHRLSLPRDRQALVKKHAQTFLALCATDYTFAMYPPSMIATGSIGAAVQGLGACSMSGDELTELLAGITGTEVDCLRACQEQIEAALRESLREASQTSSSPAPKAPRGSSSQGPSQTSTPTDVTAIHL
Protocol Notes: Human CDK4/cyclin D3 inhibitory activity (QS S Assist CDK4/Cyclin D3_FP Kit, IMAP fluorescence polarization)
Type: biochemical
Conditions: 50% inhibitory concentration against CDK4/cyclin D3, given as class symbol
pIC50: −log10 of the molar value.

Could you tell me pIC50 for each of these compounds? They are listed below.
1. C[C@@H](O)c1cc2cnc(Nc3ccc(N4CCN(C)CC4)nn3)nc2c(NC(C)(C)CO)n1
2. CC(C)Nc1nc([C@@H](C)O)cc2cnc(Nc3ccc(N4CCN(CC(=O)O)CC4C(F)(F)F)cn3)nc12 (stereo partly shown)
3. CC(C)Nc1nc([C@@H](C)O)cc2cnc(Nc3ccc(N4CCN(CC#N)CC4)nn3)nc12
4. CC(C)Nc1nc(C2CCCO2)cc2cnc(Nc3ccc(CN4CCNCC4)cn3)nc12 (single isomer, unassigned) [Compound 730]
5. CCNc1nc([C@@H](C)OC)cc2cnc(Nc3ccc(N4CCNCC4)nn3)nc12
6. CC(C)Nc1nc([C@@H](C)O)cc2cnc(Nc3ccc4c(n3)CCN(CCN(C)C)C4)nc12
7. C[C@@H](O)c1cc2cnc(Nc3ccc(CN4CCCC(O)C4)cn3)nc2c(NC2CCC2)n1 (stereo partly shown)

Result:
> 8.00
7.00 to 8.00
> 8.00
7.00 to 8.00
> 8.00
> 8.00
> 8.00

###

What IC50 was measured for each of the following?
System: CDK4/cyclin D3 (Homo sapiens)
Construct: purchased Carna Biosciences, Inc. QS S Assist CDK4/Cyclin D3_FP Kit
Protocol Notes: Human CDK4/cyclin D3 inhibitory activity (QS S Assist CDK4/Cyclin D3_FP Kit, IMAP fluorescence polarization)
Type: biochemical
Conditions: 50% inhibitory concentration against CDK4/cyclin D3, given as class symbol

Compound	Measured Value
CCCNc1nc([C@@H](C)O)cc2cnc(Nc3cc(C)c(CN4CCN(CCO)CC4)cn3)nc12 [Compound 1054]	0.01 to 0.1 µM
COC1CCN(c2ccc(Nc3ncc4cc([C@@H](C)O)nc(N[C@H]5CCCOC5)c4n3)nn2)CC1 [Compound 762]	< 0.01 µM
CC(C)Nc1nc([C@@H](C)O)cc2cnc(Nc3ccc(N4CCN(C[C@@H](C)O)CCC4=O)cn3)nc12 [Compound 721]	< 0.01 µM
CCCCNc1nc([C@@H](C)O)cc2cnc(Nc3ccc(N4CCNCC4)cn3)nc12 [Compound 922]	< 0.01 µM
CC(C)Nc1nc([C@@H](C)O)cc2cnc(Nc3ccc(CC4CCN(CCO)CC4)cn3)nc12 [Compound 951]	< 0.01 µM

Could you tell me IC50 for each of these compounds? They are listed below.
1. CCCNc1nc([C@@H](C)O)cc2cnc(Nc3ccc(N4CCC(N(C)C)CC4)nn3)nc12 [Compound 1159]
2. CC(C)Nc1nc(C(C)O)cc2cnc(Nc3ccc(OC4CCC(C(=O)O)CC4)cn3)nc12 (single isomer, unassigned) [Compound 831]

Result:
< 0.01 µM
0.01 to 0.1 µM

###

System: CDK2/cyclin A2 (Homo sapiens, UniProt P24941)
Construct: purchased Carna Biosciences, Inc. QS S Assist CDK2/Cyclin A2_FP Kit
Protocol Notes: Human CDK2/cyclin A2 inhibitory activity (QS S Assist CDK2/Cyclin A2_FP Kit, IMAP fluorescence polarization)
Type: biochemical
Conditions: 50% inhibitory concentration against CDK2/cyclin A2, given as class symbol
What IC50 was measured for each of the following?

Some compounds with recorded IC50:
Compound	System	IC50
CCCNc1nc([C@@H](C)O)cc2cnc(Nc3ccc4c(n3)CCN(CCO)C4)nc12 [Compound 1123]	CDK2/cyclin A2 (Homo sapiens, UniProt P24941)	≥ 0.1 µM
CC(C)Nc1nc([C@@H](C)O)cc2cnc(Nc3ccc(N4CCN(C(=O)CN(C)C)CC4)nn3)nc12 [Compound 1191]	CDK2/cyclin A2 (Homo sapiens, UniProt P24941)	≥ 0.1 µM
CO[C@H](C)c1cc2cnc(Nc3ncc(N4CCNCC4=O)cc3F)nc2c(NC(C)C)n1 [Compound 715]	CDK2/cyclin A2 (Homo sapiens, UniProt P24941)	≥ 0.1 µM
CC(C)Nc1nc([C@@H](C)O)cc2cnc(Nc3ccc(NC(=O)C4CCCNC4)cn3)nc12 (some centres unmarked) [Compound 769]	CDK2/cyclin A2 (Homo sapiens, UniProt P24941)	≥ 0.1 µM
CCNc1nc([C@@H](C)OC)cc2cnc(Nc3ccc4c(n3)CCN(CCN(C)C)C4)nc12 [Compound 1131]	CDK2/cyclin A2 (Homo sapiens, UniProt P24941)	≥ 0.1 µM
CCCCNc1nc([C@@H](C)OC)cc2cnc(Nc3ccc(CN4CCNCC4)cn3)nc12 [Compound 854]	CDK2/cyclin A2 (Homo sapiens, UniProt P24941)	≥ 0.1 µM

Could you tell me IC50 for each of these compounds? They are listed below.
1. CCNc1nc([C@@H](C)O)cc2cnc(Nc3ccc(N4CCN(C)CC4)nn3)nc12 [Compound 980]
2. C[C@@H](O)c1cc2cnc(Nc3ccc(CN4CCC(CO)CC4)cn3)nc2c(NCC2CC2)n1 [Compound 1149]

Result:
≥ 0.1 µM
≥ 0.1 µM
